SPOT peptide array binding signal intensity values for the binders below.
# TARGET_ENTITY: SpBzz1-D2
# ASSAY_NOTES: SPOT peptide array binding signal intensity (averaged, normalized) (arbitrary units (background-subtracted, floor 0; scale differs between SH3 domains)); higher = stronger binding of the SH3 domain to the peptide
RECORDED_METRIC: SPOT peptide array binding signal intensity

| BINDER | RELATION | OBSERVED_MEASUREMENT |
| --- | --- | --- |
| ISPPASPPPEFDFSK | = | 1 |
| LLRRTIPKRPFYHVL | ≤ | 0 |
| QPQRTAPKPPISAPR | = | 14.5 |
| VRVKKRPLIRPLNSS | ≤ | 0 |
| SSSSTPPTLPPRRIE | ≤ | 0 |
| KNPRRQLQIPRQQPS | = | 0.5 |
| VQQDSLPKLPFRSWG | = | 1 |
